FYI, the data here is from ChEMBL document CHEMBL5500354.

# EXPERIMENTAL_SYSTEM: Androgen receptor (Homo sapiens)
# ASSAY_REMARKS: Binding affinity to human androgen receptor transfected in HEK293 cell membrane co-transfected with ARC1 assessed as inhibition of [3H]-methyltrienolone binding to receptor incubated for 30 mins by competitive ligand binding assay
pIC50: −log10 of the molar value.
REPORTED_ENDPOINT: pIC50

(a) N#Cc1ccc(O[C@H]2CC[C@H](NC(=O)c3ccc(N4CCC(CN5CCN(CCCC(F)(F)C(F)(F)F)CC5)CC4)nn3)CC2)cc1Cl
(b) N#Cc1ccc(O[C@H]2CC[C@H](NC(=O)c3ccc(N4CCC(CNC5CN(CCCF)C5)CC4)nn3)CC2)cc1Cl
QUERY: Given a and b , report the one with the higher recorded pIC50. # answer = label of selected item
RESULT: b
(b: 8.27, a: 7.91)

====

# EXPERIMENTAL_SYSTEM: Androgen receptor (Homo sapiens, UniProt P10275)
# Sequence (P10275 whole entry): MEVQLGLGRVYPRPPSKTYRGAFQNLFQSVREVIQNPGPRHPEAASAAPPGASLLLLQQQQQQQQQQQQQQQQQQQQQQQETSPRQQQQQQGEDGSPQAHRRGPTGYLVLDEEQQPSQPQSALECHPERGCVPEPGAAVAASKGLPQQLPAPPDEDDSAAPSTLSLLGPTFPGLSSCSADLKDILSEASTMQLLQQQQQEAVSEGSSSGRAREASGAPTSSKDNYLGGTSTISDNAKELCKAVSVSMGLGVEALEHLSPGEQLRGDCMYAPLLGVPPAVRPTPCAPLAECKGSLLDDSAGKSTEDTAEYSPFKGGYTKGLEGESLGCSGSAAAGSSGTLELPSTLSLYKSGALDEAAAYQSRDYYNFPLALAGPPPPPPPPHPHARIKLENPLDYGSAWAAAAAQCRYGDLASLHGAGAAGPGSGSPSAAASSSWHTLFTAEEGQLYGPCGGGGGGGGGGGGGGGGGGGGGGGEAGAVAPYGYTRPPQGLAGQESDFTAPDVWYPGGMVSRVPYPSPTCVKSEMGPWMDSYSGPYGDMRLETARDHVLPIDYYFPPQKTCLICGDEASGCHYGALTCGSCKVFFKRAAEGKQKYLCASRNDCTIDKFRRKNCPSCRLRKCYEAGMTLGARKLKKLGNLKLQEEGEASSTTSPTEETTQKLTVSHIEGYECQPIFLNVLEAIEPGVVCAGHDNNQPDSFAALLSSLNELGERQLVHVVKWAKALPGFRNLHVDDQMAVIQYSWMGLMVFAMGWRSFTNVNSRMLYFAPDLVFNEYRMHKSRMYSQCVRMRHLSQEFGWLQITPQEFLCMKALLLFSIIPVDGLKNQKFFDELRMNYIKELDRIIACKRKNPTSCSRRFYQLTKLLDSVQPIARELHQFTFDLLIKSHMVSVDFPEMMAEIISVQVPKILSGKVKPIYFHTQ
REPORTED_ENDPOINT: IC50 (nM)
Numbers only; they are read as nM.

{"STRUCTURE_SMILES": "N#Cc1ccc(O[C@H]2CC[C@H](NC(=O)c3ccc(N4CCC(CN5CCN(c6ccc(NC7CN(CCCF)C7)cc6)CC5)CC4)nn3)CC2)cc1Cl", "IC50 / nM": 394}

Lab note: next compound to report on.
QUERY: State its IC50 on Androgen receptor (Homo sapiens, UniProt P10275): N#Cc1ccc(O[C@H]2CC[C@H](NC(=O)c3cccnn3)CC2)cc1Cl
RESULT: 60.8

====

# Tested on: CWR22R
# ASSAY_REMARKS: Antiproliferative activity against human 22Rv1 cells assessed as reduction in cell viability incubated for 24 hrs by CCK8 assay
# CONDITION_SET: 22Rv1, 24 h
REPORTED_ENDPOINT: IC50 (µM)
Give a bare numeral; the unit µM is implied.

QUERY: Reported IC50 for N#Cc1ccc(O[C@H]2CC[C@H](NC(=O)c3ccc(N4CCC(CN5CCN(c6ccc(NC7CN(CCCF)C7)cc6)CC5)CC4)nn3)CC2)cc1Cl : what is it?
RESULT: 5.12

====

# EXPERIMENTAL_SYSTEM: Androgen receptor (Homo sapiens, UniProt P10275)
# ASSAY_REMARKS: Binding affinity to human androgen receptor transfected in HEK293 cell membrane co-transfected with ARC1 assessed as inhibition of [3H]-methyltrienolone binding to receptor incubated for 30 mins by competitive ligand binding assay
REPORTED_ENDPOINT: IC50 (nM)

{"STRUCTURE_SMILES": "N#Cc1ccc(O[C@H]2CC[C@H](NC(=O)c3cccnn3)CC2)cc1Cl", "IC50 / nM": 1.52}

(1) N#Cc1ccc(O[C@H]2CC[C@H](NC(=O)c3ccc(N4CCC(CN5CCN(c6ccc(NC7CN(CCCF)C7)cc6)CC5)CC4)nn3)CC2)cc1Cl
(2) N#Cc1ccc(O[C@H]2CC[C@H](NC(=O)c3ccc(N4CCC(CC5CN(CCCF)C5)CC4)nn3)CC2)cc1Cl
QUERY: I'm curious, which of these has a smaller IC50 number: 1 or 2 ? Let me know the label of the one you choose.
RESULT: 2
